Data provenance: PubChem BioAssay (NCI)

Below: a set of entries, each annotated with reported growth.
system: HT29 colon; test: NCI-60 one-dose screen, 48 h (100 = growth as untreated, 0 = no growth, -100 = all killed); conditions: 10 µM unless noted
About 83,000 compounds went through this panel and 20% of them were active in at least one assay; those are over-represented in the sample as a whole.

COMPOUND	UNIT_ABBREV	growth
CC1CC(O)CC(C)(C)C1.CC1CC(O)CC(C)(C)C1.CC1CC(O)CC(C)(C)C1.CC1CC(O)CC(C)(C)C1.[Ti] (stereo unspecified)	%	97.2
CCC/C(=N/NC(N)=O)c1ccco1	%	93.7
CC(C)(C)OC(=O)CC1(O)CCCCC1	%	111
O=C(O)COc1ccccc1F	%	113
CC(=O)c1cc2ccccc2o1	%	95.4
Cc1ccc([N+](=O)[O-])cc1Br	%	70.7
O=C1C2=C(Nc3cc(Cl)ccc3N2)OC1c1c[nH]c2ccc(COc3ccccc3)cc12 (stereo unspecified)	%	86.4
CCOC(=N)c1ccc(C(=N)OCC)cc1	%	101
OCCS	%	97
CCn1c2ccc(N(C)C)cc2c2cc(N(C)C)ccc21	%	78.9
CN(C)CC(CN(C)C)C(O)c1ccccc1 (stereo unspecified)	%	100
Cc1c(O)nc(N)[nH]c1=O	%	106
Cn1c(-c2ccccc2)cc(=O)cc1-c1ccccc1	%	24.7
CC(NC(=O)CCl)c1ccccc1 (stereo unspecified)	%	104
CN(C=O)c1ccccc1	%	99.9
CN(C)C(=S)N(C)C	%	95.6
CC1=CC(=O)c2cccc(NC3=NCCO3)c21	%	101
CC(C)=NOC(C)C(=O)O (stereo unspecified)	%	110
COc1cc2oc3cc(=O)cc4oc(-c5ccccc5)cc(c2c2c1CCC(c1ccccc1)O2)c43 (stereo unspecified)	%	71.9
CCCCC/C(C)=N\NC(N)=S	%	55.3
Cc1c(Cl)c(C)c(Cc2c(C)c(Cl)c(C)c(Cl)c2O)c(O)c1Cl	%	34
COC(=O)CCOc1ccccc1	%	97.9
Cc1cc(-c2ccc(N=Nc3c(C)nn(-c4ccc(S(=O)(=O)O)cc4)c3O)c(C)c2)ccc1N=Nc1ccc(O)c(C(=O)O)c1	%	115
Cc1c(Cl)cc(Cl)c(N)c1Cl	%	108
Nc1nc(-c2ccccn2)cc(-c2cc(-c3ccccn3)nc(N)n2)n1	%	120
O=C(N=C1C(=O)C2(CCCCC2)C2(N=C(c3ccccc3)OC2=O)C12CCCCC2)c1ccccc1 (stereo unspecified)	%	51.5

###

# reported growth; entries follow
system: NCI-H226 lung; assay: NCI-60 one-dose screen, 48 h (100 = growth as untreated, 0 = no growth, -100 = all killed); details: 10 µM unless noted
The panel holds about 83,000 compounds, 20% with a hit somewhere; the sample as a whole holds those more often. The source made the active and inactive calls. Rule for the calls: active = growth percent below 10; inactive = the rest.

COMPOUND	growth
Cc1ccc(NC(=S)N/C=C(\c2ccccc2)S(=O)Cc2ccccc2)c(C)c1 (stereo not drawn)	90.2% (inactive)
COC(=O)c1nc(=S)[nH]c(C(=O)OC)c1C(=O)c1ccccc1	90.2% (inactive)
CC(=O)c1cc2ccccc2o1	107% (inactive)
NNc1ncnc2cccc(Cl)c12	93.1% (inactive)
NCCSSC/C=C\CSSCCN	90.1% (inactive)
Cc1ccc([N+](=O)[O-])cc1Br	98.4% (inactive)
CC(=O)/C(N=Nc1ccc(S(=O)(=O)c2ccc(N=N/C(C(C)=O)=C(/C)O)cc2)cc1)=C(\C)O	114% (inactive)
Cc1cc2ccccc2c2cc3ccccc3cc12	68.4% (inactive)
OCCCc1ccccc1	99% (inactive)
Cc1c(O)nc(N)[nH]c1=O	106% (inactive)
O=C(NC(CSSCC(NC(=O)OCc1ccccc1)C(=O)O)C(=O)O)OCc1ccccc1 (stereo not drawn)	86.1% (inactive)
C/C=C(/C(=O)NC(N)=O)C(C)C	116% (inactive)
O=[N+]([O-])c1cccc(N=Cc2ccccc2)c1	99.9% (inactive)

###

test system: EKVX NSCLC; assay: NCI-60 one-dose screen, 48 h; details: 10 µM unless noted
This is part of a sample that, as a whole, favours compounds with a hit. Of some 83,000 tested, about 20% had one in any assay. Calls of active or inactive are those of the source. How the source made its calls: active means growth percent below 10; inactive means the rest.
Outcome codes: 1.0 (active), 0.0 (inactive)

COMPOUND	CLASS_LABEL
CC(NC(=O)CCl)c1ccccc1 (stereo not drawn)	0.0
CCOc1ccc(/C=C\C(=O)O)cc1	0.0
CC(O)CCNC(c1ccccc1)C(O)c1ccccc1 (stereo not drawn)	0.0
Cc1onc(-c2c(F)cccc2Cl)c1-c1ncc(-c2ccc(Cl)cc2)o1	0.0
COc1ccc(CCn2cnn3c(=O)c4ccccc4nc3c2=O)cc1OC	0.0
C/C=C/C(=O)OCCCCCCCCCCCC	0.0
O=C(O)c1ccc2c3ccc(C(=O)O)c4c(C(=O)O)ccc(c5ccc(C(=O)O)c1c25)c43	0.0
CCNC1=CC(=O)c2ncccc2C1=O	0.0
CCOC(C)=N	0.0
Cc1cccc(Cl)c1N	0.0
CC1=CC(=O)C=CC1=Nc1ccc(N(C)C)cc1	1.0
COCCCNC1=C(C#N)C(=O)NC(c2cccs2)S1 (stereo not drawn)	0.0
S=c1nn[nH]n1C1CCCCC1	0.0

###

growth by entry:
system: RPMI-8226 leukemia; test: NCI-60 one-dose screen, 48 h (100 = growth as untreated, 0 = no growth, -100 = all killed); details: 10 µM unless noted
The panel holds about 83,000 compounds, 20% with a hit somewhere; the sample as a whole holds those more often. The source made the active and inactive calls. The calls were made as follows: active = growth percent below 10; inactive = the rest.
OBSERVATION_TYPE: growth

COMPOUND	RESULT
Cc1c(Cl)c(C)c(Cc2c(C)c(Cl)c(C)c(Cl)c2O)c(O)c1Cl	10% (inactive)
CC(C)(C)OC(=O)c1ccc(NCc2cc(O)ccc2O)cc1	1.66% (active)
CCCC(=O)Oc1ccc(CC)cc1	108% (inactive)
COc1ccc(CCO)cc1	110% (inactive)
CC(NC(=O)CCl)c1ccccc1 (stereo unspecified)	107% (inactive)
CN(C)CC(CN(C)C)C(O)c1ccccc1 (stereo unspecified)	108% (inactive)
Cc1nc(Nc2ccc(Cl)cc2)c2cnn(-c3ccccc3)c2n1	108% (inactive)
O=[N+]([O-])c1cccc(N=Cc2ccccc2)c1	101% (inactive)
O=c1[nH]c(=O)c2[nH]c(=O)[nH]c2[nH]1	101% (inactive)
Oc1ccc(O)c(-c2ccccc2)c1	42% (inactive)
NNC(=O)Nc1ccccc1	106% (inactive)
CCCC(=O)Oc1ccc2ccccc2c1	94.4% (inactive)
Cc1ccc([N+](=O)[O-])cc1Br	108% (inactive)
O=C1C=CC[C@H](/C=C/c2ccccc2)O1	-34.8% (active)
Cc1ccc(NC(=S)N/C=C(\c2ccccc2)S(=O)Cc2ccccc2)c(C)c1 (stereo unspecified)	94% (inactive)
O=[N+]([O-])c1ccc(NC(c2ccccc2)c2ccc3cccnc3c2O)cc1 (stereo unspecified)	22% (inactive)
CCC(C)(O)CCC(C)(O)CC (stereo unspecified)	108% (inactive)
C/C(CC(C)C)=N/NC(N)=S	73.7% (inactive)
CC(=O)c1cccc(OC(=O)c2ccccc2)c1	100% (inactive)
CCCCCCCCCCCCCCCCC(=O)O	99.4% (inactive)
OCCS	104% (inactive)
N=c1sc2ccccc2n1CC(=O)O	93.7% (inactive)
COC(=O)c1nc(N)nc(C(=O)OC)c1C(=O)c1cccc2ccccc12	109% (inactive)
C/C=C/C(=O)OCCCCCCCCCCCC	99.9% (inactive)
CCOC(=O)c1ccc(N2C(=O)C(Cl)(c3ccccc3)C2c2ccco2)cc1 (stereo unspecified)	43% (inactive)
CCCCNC(=O)c1ccccc1C	99.7% (inactive)
CS(=O)(=O)c1nsc(N)n1	106% (inactive)
N#Cc1c[nH]n2ccnc12	112% (inactive)
O=C(O)c1ccc2c3ccc(C(=O)O)c4c(C(=O)O)ccc(c5ccc(C(=O)O)c1c25)c43	135% (inactive)
NNc1ncnc2cccc(Cl)c12	94.9% (inactive)
COC(=O)c1ccccc1Cl	113% (inactive)
O=COCCCc1ccccc1	102% (inactive)
CC(=O)c1cc2ccccc2o1	98.6% (inactive)
Cc1c(Cl)cc(Cl)c(N)c1Cl	98.1% (inactive)
CC(CN(C)C)CN1c2ccccc2Sc2ccccc21 (stereo unspecified)	74.9% (inactive)
Cc1cc2ccccc2c2cc3ccccc3cc12	105% (inactive)
O=C1C=CC(n2cc(F)c(=O)[nH]c2=O)O1 (stereo unspecified)	62% (inactive)
O=c1[nH]c(=S)[nH]n1C(=S)n1[nH]c(=S)[nH]c1=O	99% (inactive)
Nc1ccc(Cl)c(S(=O)(=O)O)c1	111% (inactive)
O=C(OCc1ccccc1)c1ccccc1	99.5% (inactive)
CC(=O)C[n+]1ccccc1Sc1ccc(Cl)cc1	84.7% (inactive)
O=C(c1ccc(Cl)cc1)C1C(c2ccccc2)C1[N+](=O)[O-] (stereo unspecified)	96.3% (inactive)
CCN(CC)Cc1cc2[nH]c3c4ccc(Cl)cc4ncc3c2cc1OC	-39.2% (active)
COC(=O)c1nc(=S)[nH]c(C(=O)OC)c1C(=O)c1ccc(OC)cc1	111% (inactive)
C/C=C(/C(=O)NC(N)=O)C(C)C	113% (inactive)
CCNC1=CC(=O)c2ncccc2C1=O	66.4% (inactive)
S=c1nn[nH]n1C1CCCCC1	109% (inactive)
CSc1nc(N)c(N)c(N)n1	102% (inactive)
CCC/C(=N/NC(N)=O)c1ccco1	95.2% (inactive)
CC(C)=NOC(C)C(=O)O (stereo unspecified)	111% (inactive)
S=c1nc[nH]c2nc[nH]c12	24.9% (inactive)
C(#CCN1CCOCC1)CCCN1CCOCC1	112% (inactive)
O=C(c1ccncc1)c1c(Cc2ccccc2)ccc2ccccc12	85.1% (inactive)
COC(=O)c1cc(C(=O)OC)cc([N+](=O)[O-])c1	93.8% (inactive)
CCOC(=N)c1ccc(C(=N)OCC)cc1	109% (inactive)
CC(=O)/C(N=Nc1ccc(S(=O)(=O)c2ccc(N=N/C(C(C)=O)=C(/C)O)cc2)cc1)=C(\C)O	86.7% (inactive)
